# SYSTEM NAME: Putative agmatine deiminase (Streptococcus mutans serotype c (strain ATCC 700610 / UA159), UniProt Q8DW17)
# Sequence (Q8DW17 whole entry): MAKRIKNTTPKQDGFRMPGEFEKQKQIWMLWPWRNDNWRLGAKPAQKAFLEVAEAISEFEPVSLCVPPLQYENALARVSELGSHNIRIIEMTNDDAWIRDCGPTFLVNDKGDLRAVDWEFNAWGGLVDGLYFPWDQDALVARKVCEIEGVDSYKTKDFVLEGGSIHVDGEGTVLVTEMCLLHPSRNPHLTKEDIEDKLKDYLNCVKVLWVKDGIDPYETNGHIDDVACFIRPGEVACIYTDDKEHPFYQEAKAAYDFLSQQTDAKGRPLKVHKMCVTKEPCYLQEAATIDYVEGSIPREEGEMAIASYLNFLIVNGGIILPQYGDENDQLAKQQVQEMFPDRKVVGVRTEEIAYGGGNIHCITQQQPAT
# EXPERIMENT NOTES: Inhibition of Streptococcus mutans agmatine deiminase expressed in Escherichia coli pre-incubated for 15 mins before agmatine substrate addition
pIC50: −log10 of the molar value.
RECORDED ENDPOINT: pIC50

{"columns": ["COMPOUND STRING", "EXPERIMENTAL VALUE"],
 "data": [
  ["N=C(CCl)NCCCCNCCCCCNC(=S)Nc1ccc(-c2c3ccc(=O)cc-3oc3cc(O)ccc23)c(C(=O)O)c1", 4.97],
  ["N=C(CCl)NCCCCN", 6.59]
]}
